Target: Chromobox protein homolog 8 (Homo sapiens)
Sequence (Q9HC52 whole entry, the tested form may be a part): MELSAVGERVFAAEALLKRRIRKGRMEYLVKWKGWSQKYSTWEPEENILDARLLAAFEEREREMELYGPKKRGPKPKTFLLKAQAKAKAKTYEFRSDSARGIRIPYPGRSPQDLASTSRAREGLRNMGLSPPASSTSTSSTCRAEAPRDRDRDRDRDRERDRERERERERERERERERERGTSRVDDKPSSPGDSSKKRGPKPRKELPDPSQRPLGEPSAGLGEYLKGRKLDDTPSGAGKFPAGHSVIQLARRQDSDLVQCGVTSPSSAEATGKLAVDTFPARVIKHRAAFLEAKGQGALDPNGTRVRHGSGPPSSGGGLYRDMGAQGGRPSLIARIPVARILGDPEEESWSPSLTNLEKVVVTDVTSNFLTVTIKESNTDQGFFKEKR
Test: Antagonist activity at recombinant human N-terminal His-tagged CBX8 chromodomain (8 to 61 residues) expressed in Escherichia coli Rosetta BL21(DE3)pLysS using biotin-labeled UNC4195 measured after 30 mins by AlphaScreen assay
pIC50: −log10 of the molar value. Numbered stars: 1 amine (or outer) side, 2 acyl side, 3 side chain; on linkers, the order of the positions; unused ones are H or OH. Square brackets hold non-standard residues; d marks the D form. Peptide text beside a SMILES is read from it. * marks the point of attachment. X17 = CC(=O)N(CCCC[C@H](N[*:1])C(=O)[*:2])C1CC2CCC1C2; X3 = CN(C)C(NCCCC[C@H](N[*:1])C(=O)[*:2])=[N+](C)C; X15 = O=C([C@H](CCCCNC1CN2CCC1CC2)N[*:1])[*:2]; Phe(4-CH2NH2) = NCc1ccc(C[C@H](N)C(=O)O)cc1; X19 = CN(CCCC[C@H](N[*:1])C(=O)[*:2])C1CNC1; Acetyl(2-naphthyl) = O=C(Cc1ccc2ccccc2c1)*; Lys(Et,iPr) = CCN(CCCC[C@H](N)C(=O)O)C(C)C; Benzoyl(4-tBu) = CC(C)(C)c1ccc(C(=O)*)cc1; Lys(Et2) = CCN(CC)CCCC[C@H](N)C(=O)O; Benzoyl(4-OMe) = COc1ccc(C(=O)*)cc1; X18 = O=C(Cc1c[nH]c2ccccc12)*; Boc = CC(C)(C)OC(=O)*; Bz = O=C(c1ccccc1)*
Listing: pIC50 of selected compounds
EXPERIMENTAL_READOUT: pIC50

compound="COC(=O)[C@H](CO)NC(=O)[C@H](CCCCNC(N(C)C)=[N+](C)C)NC(=O)[C@H](CC(C)C)NC(=O)[C@H](C)NC(=O)[C@H](Cc1ccccc1)NC(=O)CNC(=O)c1ccccc1 (Bz-GFAL[X3]S-OMe)" reported_relation=< recorded_value=4.22
compound="CCN(CC)CCCC[C@H](NC(=O)[C@H](CC(C)C)NC(=O)[C@H](C)NC(=O)[C@H](Cc1ccccc1)NC(=O)Cc1c[nH]c2ccccc12)C(=O)N[C@@H](CO)C(=O)OC (X18-FAL[Lys(Et2)]S-OMe)" reported_relation== recorded_value=4.82
compound="CCN(CC)CCCC[C@H](NC(=O)[C@H](CC(C)C)NC(=O)[C@H](C)NC(=O)[C@H](Cc1ccccc1)NC(=O)c1ccc(OC)cc1)C(=O)N[C@@H](CO)C(=O)OC ({Benzoyl(4-OMe)}-FAL[Lys(Et2)]S-OMe)" reported_relation== recorded_value=5.48
compound="CCN(CC)CCCC[C@H](NC(=O)[C@H](CC(C)C)NC(=O)[C@H](C)NC(=O)[C@H](Cc1ccccc1)NC(=O)Cc1ccc2ccccc2c1)C(=O)N[C@@H](CO)C(=O)OC ({Acetyl(2-naphthyl)}-FAL[Lys(Et2)]S-OMe)" reported_relation== recorded_value=4.62
compound="CCN(CC)CCCC[C@H](NC(=O)[C@H](CC(C)C)NC(=O)[C@H](C)NC(=O)[C@H](Cc1ccc(CNC(=O)OC(C)(C)C)cc1)NC(=O)c1ccc(C(C)(C)C)cc1)C(=O)N[C@@H](CO)C(=O)OC ({Benzoyl(4-tBu)}-[Phe(4-CH2NH2)](Boc)AL[Lys(Et2)]S-OMe)" reported_relation== recorded_value=5.77
compound="COC(=O)[C@H](CO)NC(=O)[C@H](CCCCNC1CN2CCC1CC2)NC(=O)[C@H](CC(C)C)NC(=O)[C@H](C)NC(=O)[C@H](Cc1ccccc1)NC(=O)CNC(=O)c1ccccc1 (some centres undefined) (Bz-GFAL[X15]S-OMe)" reported_relation=< recorded_value=4.22
compound="COC(=O)[C@H](CO)NC(=O)[C@H](CCCCN(C)C1CNC1)NC(=O)[C@H](CC(C)C)NC(=O)[C@H](C)NC(=O)[C@H](Cc1ccccc1)NC(=O)CNC(=O)c1ccccc1 (Bz-GFAL[X19]S-OMe)" reported_relation=< recorded_value=4.22
compound="COC(=O)[C@H](CO)NC(=O)[C@H](CCCCN(C(C)=O)C1CC2CCC1C2)NC(=O)[C@H](CC(C)C)NC(=O)[C@H](C)NC(=O)[C@H](Cc1ccccc1)NC(=O)CNC(=O)c1ccccc1 (some centres undefined) (Bz-GFAL[X17]S-OMe)" reported_relation=< recorded_value=4.22
compound="CCN(CCCC[C@H](NC(=O)[C@H](CC(C)C)NC(=O)[C@H](C)NC(=O)[C@H](Cc1ccccc1)NC(=O)c1ccc(C(C)(C)C)cc1)C(=O)N[C@@H](CO)C(=O)OC)C(C)C ({Benzoyl(4-tBu)}-FAL[Lys(Et,iPr)]S-OMe)" reported_relation== recorded_value=6.00
